Reported pIC50 values are given for each entry in this list.
Biological target: IDH1-R132H recombinant protein (Homo sapiens, UniProt O75874, R132H)
Sequence (O75874 whole entry R132H): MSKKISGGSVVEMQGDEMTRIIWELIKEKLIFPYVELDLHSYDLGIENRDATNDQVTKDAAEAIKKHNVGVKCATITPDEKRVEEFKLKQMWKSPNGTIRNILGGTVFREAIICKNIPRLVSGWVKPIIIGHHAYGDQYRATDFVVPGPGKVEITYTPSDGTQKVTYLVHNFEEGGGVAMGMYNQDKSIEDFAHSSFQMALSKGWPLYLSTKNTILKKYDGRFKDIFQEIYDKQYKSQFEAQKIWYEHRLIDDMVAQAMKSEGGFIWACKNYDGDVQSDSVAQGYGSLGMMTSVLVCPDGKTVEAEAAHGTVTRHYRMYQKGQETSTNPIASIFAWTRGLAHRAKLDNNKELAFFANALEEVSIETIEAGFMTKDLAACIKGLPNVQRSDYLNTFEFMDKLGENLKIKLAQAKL
Assay: IDH1-R132H enzymatic assay (NADPH consumption, diaphorase/resazurin readout)
Assay type: biochemical
Details: read-out: Enzyme IDH1 R132H IC50 Range
pIC50: −log10 of the molar value.

Here is how some compounds turned out for pIC50.
compound=COc1cc(NCc2cc3cc(Cl)c(OC[C@@H]4CCCN4C)cc3[nH]c2=O)ccc1C#N value="7.00 to 8.00"
compound="COc1cc(NCc2cc3cc(Cl)c(OCC(O)CN4CCOCC4)cc3[nH]c2=O)ccc1C#N (centres unmarked)" value="6.00 to 7.00"
compound=COc1cc(NCc2cc3cc(Cl)cc(OCc4ccccn4)c3[nH]c2=O)ccc1C#N value="7.00 to 8.00"
compound=COc1cc(NCc2cc3cc(Cl)c(OCCn4ccnc4C)cc3[nH]c2=O)ccc1C#N value="7.00 to 8.00"
compound=COc1cc(NCc2cc3cc(C)c(C)cc3[nH]c2=O)ccc1-n1cnnn1 value="6.00 to 7.00"
compound=COc1cc(N[C@@H](C)c2cc3cc(Cl)ccc3[nH]c2=O)ccc1C#N value="7.00 to 8.00"
compound=COc1cc(NCc2cc3cc(Cl)cc(OCCN4CCOCC4)c3[nH]c2=O)ccc1C#N value="6.00 to 7.00"
compound=COc1cc(NCc2cc3ccccc3[nH]c2=O)ccc1-n1cnnn1 value="< 6.00"

pIC50 lookup needed for CCOc1ccc2[nH]c(=O)c(CNc3ccc(C#N)c(OC)c3)cc2c1 , thanks.
6.00 to 7.00

Quick one: COc1cc(NCc2cc3cc(Cl)cc(O)c3[nH]c2=O)ccc1C#N
6.00 to 7.00
